- Target: human JAK2 (a.a. 828-1132) (Homo sapiens (Human))
- Sequence (O60674 828-1132): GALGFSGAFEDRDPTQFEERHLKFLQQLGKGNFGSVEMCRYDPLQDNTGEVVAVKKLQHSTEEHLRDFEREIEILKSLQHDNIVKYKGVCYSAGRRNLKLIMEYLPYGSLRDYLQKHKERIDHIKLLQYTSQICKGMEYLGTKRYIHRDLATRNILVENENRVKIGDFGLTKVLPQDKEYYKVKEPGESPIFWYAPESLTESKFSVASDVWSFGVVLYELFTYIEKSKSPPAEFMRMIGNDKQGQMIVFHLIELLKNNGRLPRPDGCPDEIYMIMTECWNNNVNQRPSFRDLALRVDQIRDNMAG
Assay Metric: IC50

1. C[C@@H](O)c1nc2cnc3ccsc3c2n1[C@H]1CC[C@H](CC#N)[C@H](O)C1 (single isomer, unassigned) [36 (first peak)] : > 2 µM

Input line: Test system human JAK2 (a.a. 828-1132) (Homo sapiens (Human)); read-out IC50; what value for C[C@@H](O)c1nc2cnc3ccsc3c2n1[C@@H]1CC[C@@H](CC#N)[C@H](O)C1 (single isomer, unassigned) [37 (second peak)] ?
Output line: ≤ 1 µM

Input line: Test system human JAK2 (a.a. 828-1132) (Homo sapiens (Human)); read-out IC50; what value for C[C@@H](O)c1nc2cnc3ccsc3c2n1[C@@H]1CC[C@@H](CC#N)[C@@H](O)C1 (single isomer, unassigned) [36 (second peak)] ?
Output line: ≤ 1 µM

Input line: Test system human JAK2 (a.a. 828-1132) (Homo sapiens (Human)); read-out IC50; what value for CCc1nc2cnc3ccsc3c2n1[C@H]1CC[C@H](CC#N)[C@@H](O)C1 (single isomer, unassigned) [40 (first peak)] ?
Output line: ≤ 1 µM

====

# maps each entry to its JAK2/JAK1
- Tested on: human JAK1 (a.a. 837-1142)
- Test: In vitro JAK kinase assay (HTRF), JAK1
- Format: biochemical
- Test Context: ratio of IC50s, 1 mM ATP

Some solved entries appear below for comparison.
1. CC(=O)NC[C@H]1CC[C@H](n2c([C@@H](C)O)nc3cnc4ccsc4c32)CC1 : >10
2. C[C@@H](O)c1nc2cnc3ccsc3c2n1[C@H]1CC[C@H](CC#N)OC1 : >10
3. C[C@@H](O)c1nc2cnc3ccsc3c2n1[C@@H]1CC[C@@H](CC#N)OC1 : >10

Input line: Need JAK2/JAK1, item C[C@@H](O)c1nc2cnc3ccsc3c2n1[C@H]1CC[C@H](CC#N)[C@@H](O)C1 (single isomer, unassigned) [37 (first peak)]
Output line: >10

Input line: Need JAK2/JAK1, item "N#CC[C@H]1CC[C@H](n2c(C3CNC3)nc3cnc4ccsc4c32)CC1"
Output line: >7

Input line: Need JAK2/JAK1, item "C[C@@H](O)c1nc2cnc3ccsc3c2n1C1CCN(CC(F)(F)F)CC1"
Output line: >9

====

- Tested on: human JAK1 (a.a. 837-1142)
- Test: In vitro JAK kinase assay (HTRF), JAK1
- Assay type: biochemical
- Test Context: ratio of IC50s, 1 mM ATP
Assay Metric: JAK2/JAK1

Input line: Need JAK2/JAK1, item "N#CCc1nc2cnc3ccsc3c2n1[C@H]1CC[C@H](CC#N)CC1"
Output line: >10

Input line: Need JAK2/JAK1, item CS(=O)(=O)NCc1nc2cnc3ccsc3c2n1[C@H]1CC2CCC1C2 (some centres unmarked)
Output line: >4

Input line: Need JAK2/JAK1, item "C[C@@H](O)c1nc2cnc3ccsc3c2n1C1CCCCC1"
Output line: >10

Input line: Need JAK2/JAK1, item "C[C@@H](O)c1nc2cnc3ccsc3c2n1[C@H]1CC[C@H](CCS(C)(=O)=O)CC1"
Output line: >10

Input line: Need JAK2/JAK1, item "C[C@@H](O)c1nc2cnc3ccsc3c2n1[C@H]1CC[C@@H](n2cncn2)CC1"
Output line: >6

Input line: Need JAK2/JAK1, item "CS(=O)(=O)NCc1nc2cnc3ccsc3c2n1[C@H]1CC[C@H](CC#N)CC1"
Output line: >10

Input line: Need JAK2/JAK1, item "CCNC(=O)C[C@H]1CC[C@H](n2c([C@@H](C)O)nc3cnc4ccsc4c32)CC1"
Output line: >10

Input line: Need JAK2/JAK1, item "CCC(=O)NC[C@H]1CC[C@H](n2c(CC#N)nc3cnc4ccsc4c32)CC1"
Output line: >10

Input line: Need JAK2/JAK1, item "C[C@@H](O)c1nc2cnc3ccsc3c2n1[C@H]1CCCOC1"
Output line: >3

Input line: Need JAK2/JAK1, item "C[C@@H](O)c1nc2cnc3ccsc3c2n1C1CCN(CCC#N)CC1"
Output line: >10

Input line: Need JAK2/JAK1, item "C[C@@H](O)c1nc2cnc3ccsc3c2n1[C@H]1CCCN(C(=O)CCC#N)C1"
Output line: >10

Input line: Need JAK2/JAK1, item CC(CC(=O)N1CCC[C@H](n2c([C@@H](C)O)nc3cnc4ccsc4c32)C1)c1ccccc1 (some centres unmarked)
Output line: >10

Input line: Need JAK2/JAK1, item "CCOC(=O)NC[C@H]1CC[C@H](n2c(CC#N)nc3cnc4ccsc4c32)CC1"
Output line: >10

Input line: Need JAK2/JAK1, item "C[C@@H](O)c1nc2cnc3ccsc3c2n1[C@H]1CCN(CCCC(F)(F)F)C1"
Output line: >10

Input line: Need JAK2/JAK1, item "Cc1nc2cnc3ccsc3c2n1[C@H]1CC[C@H](CC#N)OC1"
Output line: >10

Input line: Need JAK2/JAK1, item CCc1nc2cnc3ccsc3c2n1[C@H]1CC[C@H](CC#N)[C@@H](O)C1 (single isomer, unassigned) [40 (first peak)]
Output line: >10

Input line: Need JAK2/JAK1, item "CCc1nc2cnc3ccsc3c2n1[C@H]1CC[C@H](CC#N)CC1"
Output line: >10

====

The next entries give measured IC50 for human JAK1 (a.a. 837-1142) (Homo sapiens, UniProt P23458).

1. Cc1nc2cnc3ccsc3c2n1[C@@H]1CC[C@@H](CC#N)[C@H](O)C1 (single isomer, unassigned) [41 (second peak)] : > 2000 nM
2. C[C@@H](O)c1nc2cnc3ccsc3c2n1[C@H]1CC[C@H](CC#N)[C@@H](O)C1 (single isomer, unassigned) [37 (first peak)] : ≤ 1000 nM

# context switch: different compound, same IC50
Input line: Test system human JAK1 (a.a. 837-1142) (Homo sapiens, UniProt P23458); read-out IC50; what value for C[C@@H](O)c1nc2cnc3ccsc3c2n1[C@H]1CC[C@H](CC#N)[C@H](O)C1 (single isomer, unassigned) [36 (first peak)] ?
Output line: ≤ 100 nM

====

- System: human JAK1 (a.a. 837-1142)
- Test: In vitro JAK kinase assay (HTRF), JAK1
- Type: biochemical
- Test Context: ratio of IC50s, 1 mM ATP
# maps each entry to its JAK2/JAK1

1. C[C@@H](O)c1cc2cnc3ccsc3c2n1[C@H]1CC[C@H](CC#N)CC1 : >10
2. CCc1nc2cnc3ccsc3c2n1[C@H]1CC[C@H](CC#N)OC1 : >10
3. C[C@@H](O)c1nc2cnc3ccsc3c2n1[C@@H]1CC[C@@H](CC#N)[C@@H](O)C1 (single isomer, unassigned) [36 (second peak)] : >10

Input line: Need JAK2/JAK1, item C[C@@H](O)c1nc2cnc3ccsc3c2n1C1CCNCC1F (stereo partly drawn) [9 (2nd peak)]
Output line: >10

Input line: Need JAK2/JAK1, item "N#CC[C@H]1CC[C@H](n2/c(=N/C#N)[nH]c3cnc4ccsc4c32)CC1.O=C(O)C(F)(F)F"
Output line: >6

Input line: Need JAK2/JAK1, item N#CCC1CCC(CO)(n2cnc3cnc4ccsc4c32)CC1 (single isomer, unassigned) [72 (second peak)]
Output line: >5

Input line: Need JAK2/JAK1, item "CC(C)OC(=O)NC[C@H]1CC[C@H](n2c(CC#N)nc3cnc4ccsc4c32)CC1"
Output line: >10

Input line: Need JAK2/JAK1, item "C[C@@H](O)c1nc2cnc3ccsc3c2n1[C@H]1CCCN(C(=O)CC#N)C1.O=C(O)C(F)(F)F"
Output line: >10
